Reference source for all entries: patent US20100136005A1

Biological target: T1, rhesus CD11a (rhesus, UniProt H9Z8N3 26-1169)
T1 construct: whole, on cells; also called rhCD11a
T1 sequence: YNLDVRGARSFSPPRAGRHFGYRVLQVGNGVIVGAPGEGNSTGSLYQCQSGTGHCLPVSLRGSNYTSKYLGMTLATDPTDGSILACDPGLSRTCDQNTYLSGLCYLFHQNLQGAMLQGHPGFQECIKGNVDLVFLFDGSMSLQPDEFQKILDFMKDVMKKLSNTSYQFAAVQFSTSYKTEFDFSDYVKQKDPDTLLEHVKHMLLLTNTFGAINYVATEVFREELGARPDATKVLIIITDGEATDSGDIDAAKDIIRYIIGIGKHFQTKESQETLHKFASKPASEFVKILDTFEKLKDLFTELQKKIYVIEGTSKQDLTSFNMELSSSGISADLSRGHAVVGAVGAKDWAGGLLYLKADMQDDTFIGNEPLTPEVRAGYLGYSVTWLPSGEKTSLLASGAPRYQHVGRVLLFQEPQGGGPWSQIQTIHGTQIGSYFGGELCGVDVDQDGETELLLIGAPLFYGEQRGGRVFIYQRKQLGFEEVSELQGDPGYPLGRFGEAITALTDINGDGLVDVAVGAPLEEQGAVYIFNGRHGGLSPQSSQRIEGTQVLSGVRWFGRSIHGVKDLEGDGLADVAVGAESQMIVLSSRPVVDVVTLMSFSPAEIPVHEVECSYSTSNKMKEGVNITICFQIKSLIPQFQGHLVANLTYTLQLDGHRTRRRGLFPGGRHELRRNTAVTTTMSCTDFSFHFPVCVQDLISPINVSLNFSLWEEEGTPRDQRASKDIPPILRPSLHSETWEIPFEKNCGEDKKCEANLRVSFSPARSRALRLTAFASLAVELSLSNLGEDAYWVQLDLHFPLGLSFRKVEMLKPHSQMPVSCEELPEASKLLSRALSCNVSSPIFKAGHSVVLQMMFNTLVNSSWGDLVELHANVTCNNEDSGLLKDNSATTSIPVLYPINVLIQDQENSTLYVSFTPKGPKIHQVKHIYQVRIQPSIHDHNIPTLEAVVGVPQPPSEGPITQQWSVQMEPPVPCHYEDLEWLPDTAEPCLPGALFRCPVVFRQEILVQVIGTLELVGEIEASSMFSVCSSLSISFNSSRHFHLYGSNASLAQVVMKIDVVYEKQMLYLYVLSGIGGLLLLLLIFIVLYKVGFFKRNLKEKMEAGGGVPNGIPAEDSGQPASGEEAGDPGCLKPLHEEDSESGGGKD
Assay: binding to rhesus peripheral blood lymphocytes; ratio to HuIgG1 EC50 (45.6 nM)
Measurement Name: Variant EC50/HuIgG1 EC50 (ratio)
Field: numeric (ratio). Do not append units.

Ask: Output measured Variant EC50/HuIgG1 EC50 for this item: AspH54Asn (antibody, human IgG1, V domains shown, HuIgG1 variant (human IgG1); also called AspH54 change to Asn) VH: EVQLVESGGGLVQPGGSLRLSCAASGYSFTGHWMNWVRQAPGKGLEWVGMIHPSNSETRYNQKFKDRFTISVDKSKNTLYLQMNSLRAEDTAVYYCARGIYFYGTTYFDYWGQGTLVTVSS VL: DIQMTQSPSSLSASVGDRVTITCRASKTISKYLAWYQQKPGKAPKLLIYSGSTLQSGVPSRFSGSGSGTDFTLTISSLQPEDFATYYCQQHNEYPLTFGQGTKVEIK
Reply: 0.1
